molecular target: CYP2C19 (Homo sapiens (Human)); assay: P450 inhibition assay CYP2C19
Sequence (P33261 whole entry): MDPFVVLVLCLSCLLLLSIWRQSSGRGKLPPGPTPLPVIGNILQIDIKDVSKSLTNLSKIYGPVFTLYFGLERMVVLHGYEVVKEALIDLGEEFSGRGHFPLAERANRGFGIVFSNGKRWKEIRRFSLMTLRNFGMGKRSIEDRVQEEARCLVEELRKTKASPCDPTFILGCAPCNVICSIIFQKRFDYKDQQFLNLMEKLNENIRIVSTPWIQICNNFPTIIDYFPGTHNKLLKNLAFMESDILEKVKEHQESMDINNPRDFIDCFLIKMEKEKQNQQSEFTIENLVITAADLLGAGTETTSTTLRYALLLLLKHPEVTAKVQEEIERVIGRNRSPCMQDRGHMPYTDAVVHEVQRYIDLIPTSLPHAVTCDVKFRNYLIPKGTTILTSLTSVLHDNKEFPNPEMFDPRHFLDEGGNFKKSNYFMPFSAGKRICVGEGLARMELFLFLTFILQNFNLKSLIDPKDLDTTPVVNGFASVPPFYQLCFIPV
value type: IC50 (nM)
Answers are plain numbers, in nM.

input: Endpoint output: IC50 of `N#Cc1cc(O)cc2ccc(-c3cccc(O)c3)cc12` . Value?
output: 1210

* * *

Would you kindly list inhibition at 1 µM for each of these molecules?
Target: 17β-HSD1 (Homo sapiens (Human))
Sequence (P14061 whole entry): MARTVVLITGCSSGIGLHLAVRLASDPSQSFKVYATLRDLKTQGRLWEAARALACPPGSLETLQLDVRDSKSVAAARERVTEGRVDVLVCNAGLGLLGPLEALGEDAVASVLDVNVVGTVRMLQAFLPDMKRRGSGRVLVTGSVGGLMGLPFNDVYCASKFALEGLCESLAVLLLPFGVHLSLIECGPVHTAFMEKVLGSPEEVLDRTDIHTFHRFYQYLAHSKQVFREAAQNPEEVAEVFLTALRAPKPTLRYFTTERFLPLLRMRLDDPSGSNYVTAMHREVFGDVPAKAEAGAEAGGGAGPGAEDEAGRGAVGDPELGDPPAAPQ
Assay: 17β-HSD1 test assay (recombinant protein from Sf9 insect cells, 3H-estrone/NADPH)
Assay type: biochemical
Details: read-out: HSD 1 μM (% inhibition of HSD1); inhibitor 1 μM
Experimental: Recombinant protein obtained from Sf9 insect cells (0.1 μg/ml) is incubated with 20 mM KH2PO4, pH 7.4, 30 nM ^3H-estrone and 1 mM NADPH for 30 min at RT in the presence of the potential inhibitor in a concentration of 1 μM or 100 nM. The stock solutions of the compounds are prepared in DMSO (dimethylsulfoxide) so that the final concentration of DMSO in the sample is 1%. […] The radioactivity was measured by means of a Packard Flow Scintillation Analyzer. […]
Give bare numbers, in %.

O=C(CCc1cc(O)cc(-c2ccc3cc(O)ccc3c2)c1)Nc1ccccc1	13.6
Oc1cccc(-c2ccc3c(-c4ccc(N5CCOCC5)cc4)c(O)ccc3c2)c1	64.9
O=C(O)c1cccc(-c2ccc3cc(O)ccc3c2)c1 [Compound 7, 3-(6-hydroxy-2-naphthyl)benzoic acid]	75.8
CNC(=O)CCc1c(O)ccc2cc(-c3cccc(O)c3)ccc12	80
CNC(=O)/C=C/c1c(O)ccc2cc(-c3cccc(O)c3)ccc12	57.6

Would you mind listing inhibition at 1 µM for each of the following molecules?
1. O=[N+]([O-])c1cc(C(F)(F)F)ccc1S(=O)(=O)Nc1cccc(-c2c(O)ccc3cc(-c4cccc(O)c4)ccc23)c1
2. CS(=O)(=O)NC(=O)c1cccc(-c2c(O)ccc3cc(-c4cccc(O)c4)ccc23)c1
3. Oc1ccc2cc(-c3cccnc3)ccc2c1 [Compound 4, 3-(6-hydroxy-2-naphthyl)pyridine]
4. O=S(=O)(Nc1nccs1)c1cccc(-c2c(O)ccc3cc(-c4cccc(O)c4)ccc23)c1
5. O=C(c1c(O)ccc2cc(-c3cccc(O)c3)ccc12)N1CCOCC1
6. O=S(=O)(c1ccccc1)c1c(O)ccc2cc(-c3cccc(O)c3)ccc12

output:
[78.1, 77.3, 31.6, 96.3, 62.4, 33]

input: Endpoint output: inhibition at 1 µM of `Oc1cncc(-c2ccc3cc(O)ccc3c2)c1` . Value?
output: 57.7
